Molecular target: STS (Homo sapiens, UniProt P08842)
Sequence (P08842 22-583): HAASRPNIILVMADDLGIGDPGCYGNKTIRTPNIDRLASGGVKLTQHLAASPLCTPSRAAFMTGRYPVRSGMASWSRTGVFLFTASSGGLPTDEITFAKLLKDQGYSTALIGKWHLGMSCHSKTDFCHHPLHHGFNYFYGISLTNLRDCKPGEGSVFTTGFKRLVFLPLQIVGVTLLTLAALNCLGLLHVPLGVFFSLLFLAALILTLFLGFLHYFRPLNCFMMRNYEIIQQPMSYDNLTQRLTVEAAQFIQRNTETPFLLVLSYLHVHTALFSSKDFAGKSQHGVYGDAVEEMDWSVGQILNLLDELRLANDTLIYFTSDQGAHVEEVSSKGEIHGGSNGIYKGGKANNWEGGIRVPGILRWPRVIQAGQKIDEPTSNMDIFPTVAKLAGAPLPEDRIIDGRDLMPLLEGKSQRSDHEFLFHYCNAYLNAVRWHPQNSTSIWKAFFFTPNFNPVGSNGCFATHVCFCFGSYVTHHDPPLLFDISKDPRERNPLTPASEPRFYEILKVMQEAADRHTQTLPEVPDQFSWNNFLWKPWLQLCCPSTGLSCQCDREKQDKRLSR
Assay: In vitro inhibition of STS
Details: STS IC50, JEG-3 cell preparation; sulfamates
RECORDED_METRIC: IC50 (µM)

// known answers, use as guide
Exam item: Give the measured IC50 of N#Cc1ccc(N(Cc2c(Cl)cc(OS(N)(=O)=O)cc2Cl)n2cnnc2)cc1 [Compound 18] .
Marked response: 0.044

Exam item: Quick check: IC50 of NS(=O)(=O)Oc1ccc(CN(c2ccc3c(c2)OC(F)(F)O3)n2cnnc2)cc1 [Compound 22] ?
Marked response: 0.052

Exam item: What does the data say about its IC50? Entry: NS(=O)(=O)Oc1ccc(CN(c2ccccc2)n2cnnc2)cc1 [Compound 20]
Marked response: 1.56

(1) N#Cc1ccc(N(Cc2ccc(OS(N)(=O)=O)cc2F)n2cnnc2)cc1 [Compound 11]
(2) N#Cc1ccc(N(Cc2ccc(OS(N)(=O)=O)c(C(F)F)c2)n2cnnc2)cc1 [Compound 15]
Exam item: Between the entries labeled 1 and 2 , whose measured IC50 is lower? Please indicate the selected item by its label.
Marked response: 1
